For each record, write down the corresponding neutralization IC50.
- target.or.test.system: Env of HIV-1 strain R1166.c1 (HIV-1)
- assay.name: cell-based or functional assay
Give bare numbers, in µg/mL.

Look at this binder and give its reported neutralization IC50. γ52κ3 (antibody, V domains shown) VH: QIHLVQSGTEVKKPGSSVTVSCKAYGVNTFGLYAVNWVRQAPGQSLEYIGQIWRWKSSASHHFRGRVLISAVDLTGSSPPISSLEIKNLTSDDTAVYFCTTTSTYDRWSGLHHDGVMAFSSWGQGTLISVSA VL: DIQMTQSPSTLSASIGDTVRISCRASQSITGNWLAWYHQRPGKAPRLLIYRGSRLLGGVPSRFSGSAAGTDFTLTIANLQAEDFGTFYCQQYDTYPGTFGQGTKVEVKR
23.4

Continuing:
Look at this binder and give its reported neutralization IC50. γ20κ11 (antibody, V domains shown) VH: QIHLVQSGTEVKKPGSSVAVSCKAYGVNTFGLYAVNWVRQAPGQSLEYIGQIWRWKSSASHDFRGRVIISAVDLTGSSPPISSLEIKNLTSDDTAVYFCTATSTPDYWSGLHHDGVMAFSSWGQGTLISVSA VL: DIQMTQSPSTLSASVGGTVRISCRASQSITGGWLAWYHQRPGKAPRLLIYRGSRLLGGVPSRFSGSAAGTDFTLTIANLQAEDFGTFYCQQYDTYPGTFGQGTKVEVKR
20.2

These data points were gathered from patent US20180171001A1.
